src = PubChem BioAssay

- study.target: Albumin (Bos taurus)
- procedure.summary: compounds binding labelled BSA control protein – biochemical, small-molecule microarray, Alexa647 label, 635/667 nm fluorescence, artefact control for SMM control protein annotation, profiling panel (AID 1118);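 further: score merges 667 nm emission intensity and signal-to-noise per printed compound spot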
- experimental.parameters: BSA-A647 binding, fluorescence 635 nm, higher = more signal
Decision: composite z-score compared against 0.3; not below it gives label 1, below it gives label 0.

Some solved entries appear below for comparison.
C=CCOC(=O)[C@@H]1[C@H]2C(=O)O[C@H](c3ccccc3)[C@H](c3ccccc3)N2[C@H](c2ccc(OCCOC(=O)[C@@H]3C[C@@H]4C(=O)N[C@@H](CCCC[N+](C)(C)C)C(=O)N4[C@@H]3c3ccc(O)cc3)cc2)[C@@]12C(=O)Nc1ccc(I)cc12: label 0
CC1=C2[C@@H](CCc3ccccc3)OB(O)C[C@@H]2[C@@H]2C(=O)N(Cc3ccccc3)C(=O)[C@@H]2C1: label 1
CN(C)C(=O)[C@@]1(Cc2ccccc2CN=[N+]=[N-])N=C(c2ccc(OCCCO)cc2)O[C@H]1c1ccccc1N=[N+]=[N-]: label 1
COCCOC(=O)N1C(=O)[C@@]2(c3cc(C#CC4=CCCCC4)ccc31)[C@H](c1ccccc1OCCO)N1[C@H](c3ccccc3)[C@H](c3ccccc3)OC(=O)[C@H]1[C@@H]2C(=O)N1CCN(c2ncccn2)CC1: label 1
C=C(/C(=C/C[C@H](OC(=O)c1ccncc1)c1ccc(CO)o1)c1cnc2ccccc2c1)C(C)C: label 1
CC(c1ccccc1)C(O)C1C=CC2C(=O)N(C)C(=O)C2N1Nc1ccccc1 (centres undefined): label 1
C=CCNC(=O)[C@@H]1[C@H]2C(=O)O[C@H](c3ccccc3)[C@H](c3ccccc3)N2[C@H](c2ccc(OCCO)cc2)[C@@]12C(=O)N(C(=O)OCCOC)c1ccc(C#Cc3ccc(OC)cc3)cc12: label 1
CCCC=C(CCC)[C@@H](NP(=O)(c1ccccc1)c1ccccc1)c1ccc(-c2ccccc2)cc1: label 1
CCOC(=O)C1=C[C@@H](C(C)(C)C)N(S(=O)(=O)c2ccc(C)cc2)[C@H]1c1cccc2ccccc12: label 0
C[N+](C)(C)CCCC[C@@H]1NC(=O)[C@@H]2C[C@H](C(=O)NCCCCCCN)[C@H](c3cccc(OCCO)c3)N2C1=O: label 1

Now look at this one.
Does the molecule `C=CCNC(=O)[C@@H]1[C@H]2C(=O)O[C@H](c3ccccc3)[C@H](c3ccccc3)N2[C@H](c2ccccc2OCCO)[C@@]12C(=O)Nc1ccc(C#CCCO)cc12` have recorded composite z-score that is 0.3 or more?
label 0
